Sourced from ChEMBL document CHEMBL5230123

# subject-of-test: Acetylcholinesterase (Homo sapiens)
# Sequence (P22303 whole entry): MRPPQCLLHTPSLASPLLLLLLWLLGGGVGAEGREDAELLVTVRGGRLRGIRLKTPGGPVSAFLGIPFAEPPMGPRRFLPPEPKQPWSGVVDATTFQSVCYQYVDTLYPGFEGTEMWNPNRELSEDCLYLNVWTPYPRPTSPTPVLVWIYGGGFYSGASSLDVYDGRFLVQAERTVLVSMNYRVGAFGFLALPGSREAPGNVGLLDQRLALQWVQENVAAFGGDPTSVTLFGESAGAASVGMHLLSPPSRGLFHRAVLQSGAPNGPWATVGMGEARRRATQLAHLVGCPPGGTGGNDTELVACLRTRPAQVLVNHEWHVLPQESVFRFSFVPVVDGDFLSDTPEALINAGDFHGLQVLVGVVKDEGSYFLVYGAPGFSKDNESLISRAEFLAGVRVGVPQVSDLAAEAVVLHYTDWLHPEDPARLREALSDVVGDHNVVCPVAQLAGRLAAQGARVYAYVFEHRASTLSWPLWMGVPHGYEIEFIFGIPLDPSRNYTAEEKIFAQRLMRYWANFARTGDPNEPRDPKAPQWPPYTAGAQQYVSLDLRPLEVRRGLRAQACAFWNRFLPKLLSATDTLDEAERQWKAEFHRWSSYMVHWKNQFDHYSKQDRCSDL
# experiment: Inhibition of recombinant human AChE using acetylcholine as substrate preincubated for 15 mins followed by substrate addition and measured after 30 mins by Amplex Red reagent based fluorescence assay

- smiles-record: "C#CCOc1ccc(-c2cc(-c3ccc(OCCN4CCOCC4)cc3)nc(N)n2)cc1"
  IC50 / nM: 30.5

---

# subject-of-test: Amine oxidase [flavin-containing] A (Homo sapiens, UniProt P21397)
# Sequence (P21397 whole entry): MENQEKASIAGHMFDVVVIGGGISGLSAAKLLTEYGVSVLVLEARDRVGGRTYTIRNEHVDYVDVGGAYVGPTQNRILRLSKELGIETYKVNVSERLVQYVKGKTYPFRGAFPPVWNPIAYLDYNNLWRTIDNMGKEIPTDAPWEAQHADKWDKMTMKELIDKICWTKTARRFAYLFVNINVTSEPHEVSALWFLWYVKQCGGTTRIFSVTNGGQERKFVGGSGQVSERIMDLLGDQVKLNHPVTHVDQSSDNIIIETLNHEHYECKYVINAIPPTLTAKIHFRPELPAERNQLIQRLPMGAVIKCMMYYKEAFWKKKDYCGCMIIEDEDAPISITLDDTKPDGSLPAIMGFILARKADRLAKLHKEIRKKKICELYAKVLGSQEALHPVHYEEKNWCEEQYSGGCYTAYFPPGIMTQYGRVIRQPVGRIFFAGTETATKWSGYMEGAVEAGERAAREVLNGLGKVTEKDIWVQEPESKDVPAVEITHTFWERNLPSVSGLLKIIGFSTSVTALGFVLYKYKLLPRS
# experiment: Inhibition of recombinant human MAO-A using p-tyramine as substrate incubated for 10 mins followed by substrate addition and measured 20 mins by fluorescence assay
pIC50: −log10 of the molar value.

- smiles-record: "CN(C)c1ccc(/C=C/C(=O)c2cc(Cl)sc2Cl)cc1"
  pIC50: 5.70
